Source: patent US20230087342A1

Biological target: human κ opioid receptors (Homo sapiens)
Sequence (P41145 whole entry): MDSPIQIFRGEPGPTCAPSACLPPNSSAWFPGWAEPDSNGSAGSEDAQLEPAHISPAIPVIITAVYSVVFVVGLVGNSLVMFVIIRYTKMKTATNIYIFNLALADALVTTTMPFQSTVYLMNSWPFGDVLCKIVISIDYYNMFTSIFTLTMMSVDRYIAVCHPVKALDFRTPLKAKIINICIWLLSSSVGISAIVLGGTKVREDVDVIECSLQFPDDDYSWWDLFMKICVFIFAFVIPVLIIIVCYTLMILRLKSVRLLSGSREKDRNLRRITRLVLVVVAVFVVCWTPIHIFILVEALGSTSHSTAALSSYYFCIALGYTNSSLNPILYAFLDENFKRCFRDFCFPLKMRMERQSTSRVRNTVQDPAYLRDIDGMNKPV
Assay: Opioid receptor function test (Lance Ultra cAMP kit, agonist activity)
Settings: CHO cells expressing human κ opioid receptors, 10 μM forskolin, 30 minutes
pEC50: −log10 of the molar value.
Label rule, in plain words: pEC50 of 10 and up is yes (1), under 10 is no (0).

Q: Does Oc1ccc2c(c1)[C@@]13CCN(CCc4cccc(C(F)(F)F)n4)CC[C@@]1(O)[C@@H](C2)N(CC1CC1)CC3 [Example 88] have a reported pEC50 of at least 10?
Result: no (0)

Q: Also, Cc1cc(CC(=O)N2CC[C@]34CCN(CC5CC5)[C@H](Cc5ccc(O)cc53)[C@]4(O)CC2)ns1 [Example 168] please.
Result: yes (1)

Q: Same lookup for C[Si]1(C)CCN(CCN2CC[C@]34CCN(CC5CC5)[C@H](Cc5ccc(O)cc53)[C@]4(O)CC2)CC1 [Example 133] , please.
Result: yes (1)

Q: Please do the same for Cc1cnn(CCN2CC[C@]34CCN(CC5CC5)[C@H](Cc5ccc(OC(=O)C(C)(C)C)cc53)[C@]4(O)CC2)c1 [Example 238] as well.
Result: no (0)

Q: Try this molecule next: Oc1ccc2c(c1)[C@@]13CCN(CCc4cn5ccccc5n4)CC[C@@]1(O)[C@@H](C2)N(CC1CC1)CC3 [Example 116]
Result: yes (1)

Q: Can you handle Cc1cnn(CCN2CC[C@]34CCN(CC5CC5)[C@H](Cc5ccc(C(N)=O)cc53)[C@]4(O)CC2)c1 [Example 244] next?
Result: no (0)
